- Tested on: AncSZ;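 also: frequency after pTyr selection over input frequency; kinase dosed for 20-30% of maximal phosphorylation in three min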
- PROCEDURE_SUMMARY: phosphorylation enrichment, bacterial display (enrichment ratio); higher = better substrate or ligand; peptides without Tyr show the background
Grouping by measured phosphorylation enrichment is done with the following cut points: lower bin (below 0.8), middle bin (0.8 to below 1), upper bin (1 or more)

>  <RESIDUES>
VNKGGYFSVNL [C3orf33_Y164_S160N]

>  <TARGET_ENTITY>
AncSZ;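 also: 11-residue human phosphosite peptides and single-mutation variants displayed on the E. coli surface, counted by deep sequencing, each peptide's frequency after selection divided by its frequency in the unselected input library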;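 also: frequency after pTyr selection over input frequency; kinase dosed for 20-30% of maximal phosphorylation in three min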

>  <ASSIGNED_CATEGORY>
middle bin

$$$$

Kindly identify the class of RAYRHYLLKQK [SCN2A_Y1919_R1918H] .
lower bin

Kindly identify the class of NNRVFYGNSDC [RS1_Y177_R182C] .
middle bin

Kindly identify the class of QKMADYSNKLY [PDPR_Y104] .
lower bin

Kindly identify the class of GEDEPYSEPYA [APBA1_Y183] .
upper bin

Kindly identify the class of TVLEPYTDPFF [ZC3H18_Y367_A368T_YF] .
upper bin

Kindly identify the class of DCVRMYELVHR [GLE1_Y135_G130D] .
upper bin

Kindly identify the class of SEPDLYYDPRG [PKP1_Y160_C161Y] .
upper bin

Kindly identify the class of LSVEIHDRREY [ITGB7_Y753_Y753H] .
upper bin

Kindly identify the class of CTTIHYTYMCN [TP53_Y234_N235T] .
upper bin

Kindly identify the class of VEDHYYEGGIG [TKT_Y564] .
upper bin

Kindly identify the class of GLRSFYETSKM [MAGED2_Y449_YF] .
lower bin

Kindly identify the class of HRGSLYLAIEF [TEK_Y899_Y897S_YF] .
upper bin

Kindly identify the class of ETMNKYDLSGR [MYEF2_Y164] .
lower bin
